Molecular target: HDAC2 (Homo sapiens (Human), UniProt Q92769)
Sequence (Q92769 whole entry): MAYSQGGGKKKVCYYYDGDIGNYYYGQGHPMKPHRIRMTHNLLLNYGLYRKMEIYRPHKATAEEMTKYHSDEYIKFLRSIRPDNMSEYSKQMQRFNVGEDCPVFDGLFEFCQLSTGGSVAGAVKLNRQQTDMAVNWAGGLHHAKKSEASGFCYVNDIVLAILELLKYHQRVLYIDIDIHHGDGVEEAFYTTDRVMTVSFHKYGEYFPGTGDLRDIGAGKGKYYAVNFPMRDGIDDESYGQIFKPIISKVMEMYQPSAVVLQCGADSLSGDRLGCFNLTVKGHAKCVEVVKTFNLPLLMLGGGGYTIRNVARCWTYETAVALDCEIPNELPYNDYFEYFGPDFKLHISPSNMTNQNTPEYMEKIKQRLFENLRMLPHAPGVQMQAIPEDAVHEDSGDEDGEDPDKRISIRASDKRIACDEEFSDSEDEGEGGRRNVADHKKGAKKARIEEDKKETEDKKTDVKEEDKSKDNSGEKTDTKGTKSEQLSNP
Assay: HDAC activity inhibition assay, HDAC2
Format: biochemical
Conditions: Table 1; 2 hours pre-incubation
pIC50: −log10 of the molar value.
MEASUREMENT KIND: pIC50

See these solved cases before continuing.
{"columns": ["LINE NOTATION", "MEASUREMENT KIND", "EXPERIMENTAL RESULT"],
 "data": [
  ["Nc1ccccc1NC(=O)c1ccc(C=C2CN(Cc3ccc4cc[nH]c4c3)C2)cc1", "pIC50", "> 6.00"],
  ["Nc1ccccc1NC(=O)c1ccc(C=C2CN(Cc3cccnc3)C2)c(Cl)c1", "pIC50", "5.30 to 6.00"],
  ["CN1CCC(Cn2cc(/C=C/C(=O)Nc3ccccc3N)cn2)CC1", "pIC50", "5.30 to 6.00"],
  ["Nc1ccccc1NC(=O)/C=C/c1cnn(Cc2ccc(F)cc2)c1", "pIC50", "5.30 to 6.00"]
]}

Retrieve pIC50 measured for Nc1ccccc1NC(=O)/C=C/c1cnn(CCOCc2ccccc2)c1 and print it.
> 6.00

----------
Test system: GM 15850(lymphoblastoid cells line) cells
Experiment: In-cell deacetylase inhibition assay (DAC assay)
Format: cell-based
Settings: GM 15850 cells, 4 h incubation; read-out: 850 DAC (in-cell deacetylase inhibition IC50)
Protocol: Compound dilutions were made in 100% DMSO followed by parallel dilution in media with 2% DMSO. 10 μl of the compound dilutions were added to the cells to achieve the desired concentrations. The final concentration of DMSO in each well was 0.2%. […] The reaction was allowed to develop for 30 min at room temperature and the fluorescence signal was detected using a fluorometer (Spectramax M2, Molecular Devices, Sunnyvale, Calif.) with excitation and emission wavelengths of 360 nm and 470 nm respectively. […]
MEASUREMENT KIND: IC50

Retrieve IC50 measured for Cn1cc(/C=C/C(=O)Nc2cc(F)ccc2N)cn1 and print it.
> 20 µM

----------
Molecular target: UniProtKB Q92769
Assay: HDAC activity inhibition assay, HDAC2
Type: biochemical
Conditions: Table 1; 2 hours pre-incubation
pIC50: −log10 of the molar value.
MEASUREMENT KIND: pIC50

{"columns": ["COMPOUND", "pIC50"],
 "data": [
  ["Nc1ccccc1NC(=O)/C=C/c1csc(C/C=C/c2ccccc2)n1 [E2]", "5.30 to 6.00"],
  ["Nc1ccccc1NC(=O)/C=C/c1cnn(CCOc2cc(F)cc(F)c2)c1", "> 6.00"],
  ["Nc1cc(F)ccc1NC(=O)/C=C/c1cnn(CCOc2ccccc2)c1", "5.30 to 6.00"],
  ["Cc1nn(C/C=C/c2ccccc2)c(C)c1/C=C/C(=O)Nc1ccccc1N", "5.30 to 6.00"],
  ["Nc1ccccc1NC(=O)/C=C/c1cnn(C/C=C/c2ccc(F)cc2)c1", "5.30 to 6.00"],
  ["Nc1ccccc1NC(=O)/C=C/c1cnn(CCOc2ccccc2)c1", "> 6.00"]
]}

Retrieve pIC50 measured for Nc1ccccc1NC(=O)/C=C/c1cnn(CCOc2ccc(C(F)(F)F)cc2)c1 and print it.
5.30 to 6.00

Retrieve pIC50 measured for Nc1ccccc1NC(=O)/C=C/c1cc2ccccn2n1 and print it.
5.30 to 6.00

Retrieve pIC50 measured for Nc1ccccc1NC(=O)/C=C/c1cnn(CCc2c[nH]c3ccccc23)c1 and print it.
> 6.00

Retrieve pIC50 measured for Cn1cc(/C=C/C(=O)Nc2ccccc2N)cn1 and print it.
4.70 to 5.00

Retrieve pIC50 measured for Nc1ccccc1NC(=O)/C=C/c1cnn(CCc2ccccc2)c1 and print it.
5.30 to 6.00

Retrieve pIC50 measured for Cc1cc(/C=C/C(=O)Nc2ccccc2N)on1 and print it.
4.70 to 5.00

Retrieve pIC50 measured for Nc1ccccc1NC(=O)/C=C/c1cnc2ccccn12 and print it.
5.00 to 5.30

Retrieve pIC50 measured for Nc1ccccc1NC(=O)/C=C/c1cnn(CCCc2ccccc2)c1 and print it.
> 6.00

Retrieve pIC50 measured for Nc1ccccc1NC(=O)/C=C/c1cnn(-c2ccccc2)c1 and print it.
5.30 to 6.00

Retrieve pIC50 measured for Nc1ccccc1NC(=O)c1ccc(C=C2CCN(Cc3cccnc3)CC2)c(Cl)c1 and print it.
> 6.00

Retrieve pIC50 measured for Nc1ccccc1NC(=O)/C=C/c1cnn(CC/C=C/c2ccccc2)c1 and print it.
> 6.00

Retrieve pIC50 measured for Nc1ccccc1NC(=O)c1ccc(C=C2CN(Cc3ccc4cc[nH]c4c3)C2)c(Cl)c1 and print it.
5.30 to 6.00

Retrieve pIC50 measured for Cc1ncc(/C=C/C(=O)Nc2ccccc2N)s1 and print it.
5.00 to 5.30

Retrieve pIC50 measured for Cn1cnc(/C=C/C(=O)Nc2ccccc2N)c1 and print it.
5.00 to 5.30
